Would you mind telling me the reported inhibition of each entry?
- testSystem: Protein kinase C alpha type (Homo sapiens)
- conditionDescription: at 0.1 µM
Entry rule: numbers only, all in %.

Data request: Item Fc1ccc(-c2ncn(CCCN3CCOCC3)c2-c2ccncc2)cc1 with Protein kinase C alpha type (Homo sapiens) - inhibition?
Data returned: 1.44

Data request: Lab note: need inhibition for Fc1ccc(-c2ncn(C3CCNCC3)c2-c2ccnc(Oc3ccc(Oc4ccccc4)cc3)n2)cc1 on Protein kinase C alpha type (Homo sapiens), anyone have it?
Data returned: 1.36

Data request: Record CS(=O)(=O)CCNCc1cc(-c2cc3c(Nc4ccc(OCc5cccc(F)c5)c(Cl)c4)ncnc3s2)cs1 : what is its inhibition with Protein kinase C alpha type (Homo sapiens)?
Data returned: 0.73

Data request: Record CCS(=O)(=O)c1ccc(OC)c(Nc2ncc(-c3cccc(-c4ccccc4F)c3)o2)c1 : what is its inhibition with Protein kinase C alpha type (Homo sapiens)?
Data returned: 1.13

Data request: // fetch Protein kinase C alpha type (Homo sapiens) inhibition for CN(C)c1ccc2c(c1)/C(=C/Nc1ccc(S(N)(=O)=O)cc1)C(=O)N2
Data returned: 0.48

Data request: # get_value(readout= inhibition, system= Protein kinase C alpha type (Homo sapiens)) for O=C(Nc1n[nH]c2cc(-c3cc(F)ccc3F)ccc12)C1CC1
Data returned: 0.67

Data request: Kindly state the measured inhibition obtained for Clc1ccc(CNc2nccc(-c3cnn4ncccc34)n2)cc1 with Protein kinase C alpha type (Homo sapiens).
Data returned: 0.92

Data request: Please tell me: inhibition of c1ccc(-c2n[nH]cc2-c2ccnc(-c3ccc(OCCN4CCOCC4)cc3)c2)nc1 , system Protein kinase C alpha type (Homo sapiens)?
Data returned: 2.22

Data request: Give the reported inhibition for COc1cc(C)c(N(C)C(=O)CN(C)C)cc1Nc1nc(Nc2cccc(F)c2C(N)=O)c2cc[nH]c2n1 (system: Protein kinase C alpha type (Homo sapiens)).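 Also: each value is the mean percent inhibition of PKC-alpha kinase activity.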
Data returned: -3

Data request: Hi! What's the reported inhibition for Cc1ccc(C(=O)NC(C)C)cc1-c1ccc(C(=O)NCC2CC2)cc1 on Protein kinase C alpha type (Homo sapiens)?
Data returned: -0.49

Data request: Fill in the recorded inhibition for this molecule, with Protein kinase C alpha type (Homo sapiens) as test system: O=C1Nc2ccc(I)cc2C1=Cc1cc(Br)c(O)c(Br)c1
Data returned: 0.27

Data request: What inhibition appears in the records for this molecule with Protein kinase C alpha type (Homo sapiens)? Fc1ccc(-c2ncn(C3CCNCC3)c2-c2ccnc(Oc3ccc(F)c(F)c3)n2)cc1
Data returned: -3.02

* * *

Exercise: state measured inhibition for each of the molecules provided.
- System: Serine/threonine-protein kinase B-raf (Homo sapiens), P15056 [V600E];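 also: mean inhibition of the BRAF V599E mutant, from GSK PKIS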
- Sequence (P15056 whole entry V600E): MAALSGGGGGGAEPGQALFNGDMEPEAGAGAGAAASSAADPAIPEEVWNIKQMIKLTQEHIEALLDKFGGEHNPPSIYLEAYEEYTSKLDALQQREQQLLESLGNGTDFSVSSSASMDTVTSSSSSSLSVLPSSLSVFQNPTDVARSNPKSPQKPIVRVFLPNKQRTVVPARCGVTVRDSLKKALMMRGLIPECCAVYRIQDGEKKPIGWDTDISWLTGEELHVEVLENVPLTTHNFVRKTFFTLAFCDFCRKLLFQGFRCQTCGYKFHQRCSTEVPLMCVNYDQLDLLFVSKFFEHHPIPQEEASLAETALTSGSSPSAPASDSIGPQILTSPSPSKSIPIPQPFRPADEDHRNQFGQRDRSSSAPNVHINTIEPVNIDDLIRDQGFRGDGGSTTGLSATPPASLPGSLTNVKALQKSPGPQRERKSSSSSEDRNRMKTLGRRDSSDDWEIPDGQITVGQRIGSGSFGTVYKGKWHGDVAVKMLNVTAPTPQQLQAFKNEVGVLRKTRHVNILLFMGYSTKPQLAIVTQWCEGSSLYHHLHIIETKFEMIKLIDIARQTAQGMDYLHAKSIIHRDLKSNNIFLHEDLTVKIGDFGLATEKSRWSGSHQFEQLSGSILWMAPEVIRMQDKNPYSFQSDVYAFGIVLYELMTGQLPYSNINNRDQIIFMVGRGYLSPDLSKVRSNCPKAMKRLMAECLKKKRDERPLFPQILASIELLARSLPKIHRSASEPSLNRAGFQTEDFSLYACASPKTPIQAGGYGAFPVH
- conditionDescription: at 0.1 µM
- Description: GSK_PKIS: BRAF (V599E mutant) mean inhibition at 0.1 uM [Nanosyn]
Lab book: enter the figure in %, no units written.

Data request: Give the measured inhibition of COc1cc2ncn(-c3cc(OCc4cccs4)c(C(N)=O)s3)c2cc1OC .
Data returned: 2.45

Data request: Given the molecule Fc1ccc(-c2ncn(CCCN3CCOCC3)c2-c2ccncc2)cc1 , what is its reported inhibition?
Data returned: 0.73

Data request: Requested read-out: inhibition. Entry: COC(=O)Nc1nc2ccc(Sc3ccc(NC(=O)Nc4cc(C(F)(F)F)ccc4F)cc3)cc2[nH]1
Data returned: -0.53

Data request: I'd like to know its inhibition. The molecule in question is CCC(=O)Nc1ccc(C)c(-c2ccc(C(=O)NCC3CC3)cc2)c1
Data returned: 3.97

Data request: Recorded inhibition for Fc1ccc(-c2nc3n(c2-c2ccncc2)CCS3)cc1 , please?
Data returned: 5.81

Data request: May I ask what inhibition has been recorded for CN1CCN(CCCNc2nc3ccc(Oc4ccc(NC(=O)Nc5cc(C(F)(F)F)ccc5F)cc4)cc3[nH]2)CC1 ?
Data returned: 2.94

Data request: Need inhibition of COc1cc(C)c(N(C)C(=O)CN(C)C)cc1Nc1nc(Nc2cccc(F)c2C(N)=O)c2cc[nH]c2n1 , thanks.
Data returned: 2.25

Data request: Look up inhibition: C/C(Nc1ccc(S(N)(=O)=O)cc1)=C1/C(=O)Nc2ccccc21
Data returned: -2.48

Data request: // query inhibition value for entry N#Cc1ccc(Oc2nccc(-c3c(-c4ccc(F)cc4)ncn3C3CCNCC3)n2)cc1
Data returned: 4.98

Data request: State the recorded inhibition for this entry: CS(=O)(=O)CCNCc1cc(-c2cc3c(Nc4ccc(OCc5cccc(F)c5)c(Cl)c4)ncnc3s2)cs1
Data returned: 4.4

Data request: I have this molecule here, Fc1ccc(-c2ncn(C3CCNCC3)c2-c2ccnc(Oc3ccc(F)c(F)c3)n2)cc1 , and I need its recorded inhibition.
Data returned: 4.48

Data request: I would be grateful if you could share the reported inhibition for CNC(=O)c1cncc(/C=C/c2c(C)cccc2C)c1 .
Data returned: -0.11

Data request: Please report the recorded inhibition for NC(=O)Cc1ccccc1Oc1nccc(-c2c(-c3ccc(F)cc3)ncn2C2CCNCC2)n1 .
Data returned: 3.3

Data request: Fill in the blank: the reported inhibition of Cc1nnc(-c2ccc(C)c(-c3ccc(C(=O)NCc4ccc(Cl)cc4)cc3)c2)o1 is ____.
Data returned: 6.27

Data request: # input molecule: Cc1ccc(NC(=O)c2ccoc2)cc1-c1ccc(C(=O)NCC2CC2)cc1 ; wanted: its inhibition
Data returned: 2.97

Data request: So what does the record say about inhibition for CS(=O)(=O)CCNCc1ccc(-c2ccc3ncnc(Nc4ccc(OCc5ccccc5)c(Br)c4)c3c2)o1 ?
Data returned: 3.23

Data request: Look at this molecule and give its reported inhibition. O=C(Nc1ccc(Oc2ccc3[nH]c(NC(=O)c4ccccc4)nc3c2)cc1)Nc1cc(C(F)(F)F)ccc1F
Data returned: 5.24

Data request: Find the recorded inhibition belonging to NS(=O)(=O)c1ccc(Nc2cc(-c3ccc(O)c(F)c3)n[nH]2)cc1 and report it.
Data returned: -4.83
